// provenance: ChEMBL document CHEMBL3085701

# protocol.summary: Half life in Balb-C mouse liver microsomes
# Assay type: ADME, Microsome
quantity.measured: t1/2 (min)
# unit: min | format: bare number

Sample answers from the record:
{"compound.structure.string": "C[C@@H](NC(=O)C1CCN(C(=O)c2cc3ccccc3n2Cc2ccc(Cl)cc2)CC1)c1ccccc1", "t1/2 / min": 2.1}
{"compound.structure.string": "C[C@@H](NC(=O)C1CCN(C(=O)c2cc3ccccc3n2Cc2ccc(Cl)cc2)CC1)c1ccncc1", "t1/2 / min": 23.4}

Turning now to a further record.
Query :: Quick check: t1/2 of `O=C(NCCn1ccnc1)C1CCN(C(=O)c2cc3ccccc3n2Cc2ccc(Cl)cc2)CC1` ?
Result :: 14.3

###

# protocol.summary: Plasma concentration in C57BL/6 mouse at 30 mg/kg, ip after 2 hrs
# Type: ADME, organism-based
# Parameters: dose 30 mg/kg, route intraperitoneal
Entries and their concentration at 2 h
# unit: ng/mL | format: bare number

{"compound.structure.string": "C[C@@H](NC(=O)C1CCN(C(=O)c2cc3ccccc3n2Cc2ccc(Cl)cc2)CC1)c1ccccc1", "quantity.measured": "concentration at 2 h", "reported.value": 30}

Query :: Quick check: concentration at 2 h of `O=C(NCCc1ccncc1)C1CCN(C(=O)c2cc3ccccc3n2Cc2ccc(Cl)cc2)CC1` ?
Result :: 79

###

# protocol.summary: Plasma concentration in C57BL/6 mouse at 20 mg/kg, ip after 30 mins
# Format: ADME, organism-based
# Design: dose 20 mg/kg, route intraperitoneal
quantity.measured: concentration at 0.5 h (ng/mL)
# unit: ng/mL | format: bare number

Query :: Quick check: concentration at 0.5 h of `O=C(NCCc1ccncc1)C1CCN(C(=O)c2cccn2Cc2ccc(Cl)cc2)CC1` ?
Result :: 124

###

# protocol.summary: Cytotoxicity against human BE(2)-C cells after 18 to 20 hrs by MTT assay
# Type: cell-based
# run.conditions: BE(2)-C cells
quantity.measured: CC50

Sample answers from the record:
{"compound.structure.string": "O=C(NCCc1ccncc1)C1CCN(C(=O)NCCc2ccc(Cl)cc2)CC1", "reported.value": "> 100 µM"}
{"compound.structure.string": "Cn1ccc(CNC(=O)C2CCN(C(=O)c3cc4ccccc4n3Cc3ccc(Cl)cc3)CC2)n1", "reported.value": "> 100 µM"}
{"compound.structure.string": "COc1cccc(CCNC(=O)C2CCN(C(=O)c3cc4ccccc4n3Cc3ccc(Cl)cc3)CC2)c1", "reported.value": "> 100 µM"}

Query :: Quick check: CC50 of `C[C@@H](NC(=O)C1CCN(C(=O)c2cc3ccccc3n2Cc2ccc(Cl)cc2)CC1)c1ccccc1` ?
Result :: > 100 µM

Query :: Next entry: `CC(=O)n1c(C(=O)N2CCC(C(=O)N(C)Cc3ccccc3)CC2)cc2ccccc21`
Result :: > 50 µM

Query :: Next entry: `COCCn1c(C(=O)N2CCC(C(=O)N(C)Cc3ccccc3)CC2)cc2ccccc21`
Result :: > 50 µM

Query :: Next entry: `O=C(NCCc1ccncc1)C1CCN(C(=O)c2cccn2Cc2ccc(Cl)cc2)CC1`
Result :: > 100 µM

Query :: Next entry: `CN(Cc1ccccc1)C(=O)C1CCN(C(=O)c2cc3ccccc3n2Cc2ccc([N+](=O)[O-])cc2)CC1`
Result :: > 100 µM

Query :: Next entry: `CN(C)C(=O)C1CCN(C(=O)c2cc3ccccc3n2Cc2ccc(Cl)cc2)CC1`
Result :: > 100 µM

Query :: Next entry: `CN1CCC(CNC(=O)C2CCN(C(=O)c3cc4ccccc4n3Cc3ccc(Cl)cc3)CC2)CC1`
Result :: > 50 µM

Query :: Next entry: `CN(Cc1ccccc1)C(=O)C1CCN(C(=O)c2cc3ccccc3n2Cc2ccc(C#N)cc2)CC1`
Result :: > 100 µM

Query :: Next entry: `O=C(c1cc2ccccc2n1Cc1ccc(Cl)cc1)N1CCC(C(=O)N2CCOCC2)CC1`
Result :: > 100 µM

Query :: Next entry: `O=C(NCCc1ccncc1)C1CCN(C(=O)c2nccn2Cc2ccc(Cl)cc2)CC1`
Result :: > 50 µM

Query :: Next entry: `Cn1c(C(=O)N2CCC(C(=O)NCCc3ccncc3)CC2)cc2ccccc21`
Result :: > 50 µM

Query :: Next entry: `CC(C)(Cc1ccncc1)NC(=O)C1CCN(C(=O)c2cc3ccccc3n2Cc2ccc(Cl)cc2)CC1`
Result :: 43.6 µM

Query :: Next entry: `O=C(NCc1ccncc1)C1CCN(C(=O)c2cc3ccccc3n2Cc2ccc(Cl)cc2)CC1`
Result :: > 100 µM

Query :: Next entry: `Cn1cnc(CNC(=O)C2CCN(C(=O)c3cc4ccccc4n3Cc3ccc(Cl)cc3)CC2)c1`
Result :: > 50 µM
